Experimental target: ATP-dependent Clp protease proteolytic subunit (Bacillus subtilis (strain 168)) (UniProt P80244)
Assay comment: qHTS Assay for Activators of ClpP; also: the source files actives as falling curves though it sought activators and does not explain the sign; nearly all actives have a fitted effect of over 65% in size
Condition context: purified B. subtilis ClpP, FRET peptide cleavage, 20 min; series mostly up to 57.5 µM
Out of some 340,000 compounds screened, about 6,400 (1.9%) were called active. Inconclusive results (about 4%) are left out. Calls follow the shape of the dose curve; as a rule, active = well fitted falling curve with a large enough effect; inconclusive = small, poorly fitted or top-dose-only effect; inactive = no such curve, though single readings can be large or run the other way. What follows is part of a selection rich in actives, with near analogues and random picks from the rest.
Labels: active, inactive

* CCOC(=O)[C@]12CCCC=C1N(CCC1=CCCCC1)C(=O)[C@H](CC(=O)NCCCCc1ccccc1)C2 | inactive
* COc1ccccc1-c1sc2ccccc2c1C#CC1(O)CCCCC1 | inactive
* COc1ccc(C(C)C)cc1-c1ccc2nncn2c1 | inactive
* CCC(C)(C)NC(=O)C(c1ccc(O)cc1)N(C(=O)Cn1nnc2ccccc21)c1ccc(NC(C)=O)cc1 (stereo not drawn) | inactive
* CC1(C)Cc2c(sc(NC(=O)C(=O)N3CCOCC3)c2C#N)CO1 | inactive
* CCOc1ccc(CC(=O)NC2CCN(Cc3ccccc3)CC2)cc1 | inactive
* CC(C)c1cccc(-c2csc(C(O)c3ccccc3)n2)c1 (stereo not drawn) | inactive
* Cc1cccc(C)c1-n1nnnc1C(CCc1ccccc1)N1CCN(C/C=C/c2ccccc2)CC1 (stereo not drawn) | inactive
* CN1OC[C@@H]2CN(C(=O)C(C)(C)C)[C@H](c3ccc(-n4ccnc4)cc3)C[C@@H]21 | inactive
* CCOc1ccc2[nH]c(=O)c(CN(CCCO)C(C)=O)cc2c1 | active
* CN1C(=O)c2ccc(NC(=O)C3CCCCC3)cc2C1=O | active
* CCC(=O)N(Cc1cc2ccccc2[nH]c1=O)c1ccc(OC)cc1 | inactive
* O=C(COc1coc(CN2CCN(c3ccccc3F)CC2)cc1=O)N1CCc2ccccc21 | inactive
* CC(C)OC(=O)C(C#N)c1nc2ccccc2nc1N1CCN(Cc2ccccc2)CC1 (stereo not drawn) | inactive
* Cc1cccc(C(=O)Nc2ccc3c(c2)C(=O)N(CC(C)C)C3=O)c1 | inactive
* CN(C)c1ccc(/C=C/c2sc3ccccc3[n+]2C)cc1 | inactive
* NC(c1csc(NC(=O)Nc2ccccc2Oc2ccccc2)n1)c1ccccc1Cl (stereo not drawn) | inactive
* CC1(C)O[C@H]2CC(=O)OCC23[C@H]2CC[C@@]4(C)[C@H](c5ccoc5)OC(=O)[C@H]5O[C@]54[C@]2(C)C(=O)C[C@@H]13 (stereo partly drawn) | inactive
* C(=Nc1ccc(/C=C/c2ccnc3ccccc23)cc1)c1cc2c3c(c1)CCCN3CCC2 | inactive
* COc1cccc(-c2nc3nc(C)cc(C)n3c2NC2CCCCC2)c1 | inactive
* CCOC(=O)C1CCCN(C(=O)c2cccc3ccccc23)CC1 (stereo not drawn) | inactive
* O=C(COc1coc(CN2CCN(c3ccccc3)CC2)cc1=O)N1CCc2ccccc21 | active
* Cc1noc(C)c1-c1ccc(C(=O)NCc2ccncc2)c2occc12 | inactive
* CC(C)C[C@@H](COCc1ccc(Cl)cc1)N1CCN(C(=O)c2ccc(Cl)cc2Cl)CCC1=O | inactive
* CCN1C(=O)[C@H]2[C@@H](c3ccc(C(F)(F)F)cc3)N[C@]3(CCCN(Cc4ccc(Br)cc4)C3=O)[C@H]2C1=O | inactive
* COc1cccc(CNc2nc(NCc3cccs3)nc3ccsc23)c1 | inactive
* O=S1(=O)CCN(Cc2ccccc2)CC1 | inactive
* O=C(Nc1ccc(Cl)cc1)c1csc([C@@H]2O[C@H](CO)[C@H](O)[C@H](O)[C@H]2O)n1 | inactive
* CC(C)(C)NC(=O)C(c1ccco1)N(Cc1ccc2c(c1)OCO2)C(=O)Cn1nnc2ccccc21 (stereo not drawn) | inactive
* COc1ccc2sc(-c3ccccc3OC)c(-c3ccc(OCCN4CCCC4)cc3)c2c1 | inactive
* Cc1ccc(S(=O)(=O)NN=C2CC(C)(C)CC(=O)C2(C)C)cc1 | inactive
* CCOc1cc(-c2nc3cc(C)ccn3c2NCC2CCCO2)ccc1O (stereo not drawn) | active
* Cc1nc2ccc(NC(=O)C3CCCCC3)cc2s1 | inactive
